Molecular target: HLA-DRB1*1101 (human)
Experiment: competition binding
Conditions: modification not given
# maps each entry to its IC50

Consider the following illustrative entries.
# lookup: IC50 of HRVDLGTLRGYYNQS [p13*] 8.06 µM

And then AAVVVPSGQEQRYTC [p47] , what is it? 68.9 µM

And then PEYWDGETRKVKAHS [p11] , what is it? 0.418 µM

And then MRYFFTSVSRPGRGE [p2*] , what is it? 0.003 µM

And then ETLQRTDAPKTHMTH [p37] , what is it? > 100 µM

And then YAYDGKDYIALKEDL [p24] , what is it? 0.184 µM

New cases:
# lookup: IC50 of CDVGSDWRFLRGYHQ [p19] 0.029 µM

And then EDLRSWTAADMAAQT [p27] , what is it? > 100 µM

And then VEWLRRYLENGKETL [p35*] , what is it? 0.251 µM

And then HTVQRMYGCDVGSDW [p17*] , what is it? 6.48 µM

And then VDLGTLRGYYNQSEA [p14*] , what is it? 1.55 µM
